Where a name gives a salt, the structure may show the parent alone.
For reference, Kd measured on dopamine 1 receptor peptide D1DR 96–98 FCN (Homo sapiens):
Supply the numeric figure in µM, leaving out any unit text.

// below: answered compounds
1) N[C@@H](Cc1ccccc1)C(=O)O : 25
2) O=C1OC(C(O)CO)C(=O)C1=O (centres unmarked) [Dehydro Asc, dehydroascorbic acid] : 20
3) CCC(=O)C(CC(C)N(C)C)(c1ccccc1)c1ccccc1 (centres unmarked) : 25
4) CN1CC[C@]23c4c5ccc(O)c4O[C@H]2[C@@H](O)C=C[C@H]3[C@H]1C5 [Morphine, morphine sulfate] : 25

Would you kindly look at the next entry?
Entry under review: CNC[C@H](O)c1cccc(O)c1 . Reported Kd?
50

###

- target-system: oxidized glutathione (Glut OX, ECG-ECG)
- measurement-notes: UV spectrophotometry binding to oxidized glutathione
- stated-conditions: UV spectrophotometry; single value, or first (higher-affinity) value of a cell a/b; read-out: Kd (µM) Glut OX ECG-ECG
Catalogue of Kd values

// below: answered molecules
1. COc1ccc2[nH]cc(CCNC(C)=O)c2c1 : > 1000 µM
2. OC[C@H]1OC(O)[C@H](O)[C@@H](O)[C@@H]1O (stereo partly shown) : > 1000 µM
3. NCC(=O)O : > 1000 µM

Entry under review: NCCc1c[nH]cn1 . Reported Kd?
> 1000 µM

Please give the result for N[C@@H](CCC(=O)O)C(=O)O [Glutamate, glutamate] too.
> 1000 µM

Please give the result for CC(=O)OCC[N+](C)(C)C too.
> 1000 µM

Please give the result for NCCc1c[nH]c2ccc(O)cc12 too.
> 1000 µM
